- tgt: T1, cyno BMP9 (cyno, UniProt G7PEU8 320-429)
- T1 sequence: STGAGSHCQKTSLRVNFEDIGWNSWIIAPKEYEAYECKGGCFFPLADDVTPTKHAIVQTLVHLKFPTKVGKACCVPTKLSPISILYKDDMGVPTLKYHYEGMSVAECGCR
- assay-remarks: MSD-SET solution equilibrium titration
- Description: The amount of free Fab binding sites was determined by transferring the mixtures on antigen-coated plates and a brief incubation. The free Fab was consequently bound to the plate and detected with a detection antibody after a washing step for removing Fab-antigen complexes. The resulting signal was plotted versus the antigen concentration; and the KD was accurately determined by non-linear curve fitting. […]
assay-metric: log10 Kd (log10 of the value in nM)
Hello, just confirming the data are log10 of Kd with units of nM.

binder	log10 Kd
Antibody BMP9-6: MOR022965 (antibody, human IgG1, kappa, V domains shown, Fully human, phage display) VH: QVQLVQSGAEVKKPGSSVKVSCKASGGTFSSYAISWVRQAPGQGLEWMGHIIPHWGHARYAQKFQGRVTITADESTSTAYMELSSLRSEDTAVYYCARSASSLPHFHWFDYWGQGTLVTVSS VL: DIQMTQSPSSLSASVGDRVTITCRASQDINNYLNWYQQKPGKAPKLLIYAASRLQSGVPSRFSGSGSGTDFTLTISSLQPEDFATYYCQQRDTTPWTFGQGTKVEIKR	-1.64
Antibody BMP9-9: MOR023796 (antibody, human IgG1, lambda, V domains shown, Fully human, phage display) VH: QVQLVQSGAEVKKPGSSVKVSCKASGGTFSDYAIHWVRQAPGQGLEWMGGIIPFFGTAYYAQKFQGRVTITADESTSTAYMELSSLRSEDTAVYYCARRIVSDSVAVQYRHAFDPWGQGTLVTVSS VL: QSVLTQPPSVSGAPGQRVTISCSGSSSNIGSNYVYWYQQLPGTAPKLLIYGNNNRPSGVPDRFSGSKSGTSASLAITGLQAEDEADYYCNAWDTKAYVWVFGGGTKLTVLG	-0.89
Antibody BMP9-4: AM4405 (antibody, human IgG1, kappa, V domains shown, also called 2B11G2-AM4405) VH: QVQLVQSGAEVKKPGASVKVSCKASGYTFRSYNMHWVRQAPGQGLEWMGLIYPGNAVTSYSQKFKDRVTMTVDKSTSTAYMELSSLRSEDTAVYYCAKDDYFRGGSYAMDYWGQGTTVTVSS VL: EIVLTQSPDFQSVTPKEKVTITCRASQSIRNNLHWYQQKPDQSPKLLIKYASQSIRGVPSRFSGSGSGTDFTLTINSLEAEDAATYYCQQSHSWPYTFGGGTKVEIKR	-1.32
Antibody BMP9-1: AM0100 (antibody, human IgG1, kappa, V domains shown, also called 4E10D7-AM0100) VH: QVQLVQSGAEVKKPGASVKVSCKASGYTFTRYWMHWVRQAPGQGLEWMGEINPSQGGTNYNEKFKSRVTMTVDKSISTAYMELSRLRSDDTAVYYCAIGSNYGGLVYWGQGTLVTVSS VL: EIVLTQSPATLSLSPGERATLSCRASESLDNYGISFMNWFQQKPGQAPRFLIYAASNQGSGIPARFSGSGSGTDFTLTISSLQPEDTAVYFCQQSKEVPRTFGGGTKVEIKR	-0.89
Antibody BMP9-8: MOR023793 (antibody, human IgG1, kappa, V domains shown, Fully human, phage display) VH: QVQLVQSGAEVKKPGASVKVSCKASGYTFTSYYMNWVRQAPGQGLEWMGWINPVQGNTNYAQKFQGRVTMTRDTSISTAYMELSRLRSEDTAVYYCARNYFDVWGQGTLVTVSS VL: DIQMTQSPSSLSASVGDRVTITCRASQTISNFLAWYQQKPGKAPKLLIYAASNLQSGVPSRFSGSGSGTDFTLTISSLQPEDFAVYYCQQLYAESITFGQGTKVEIKR	-0.62

Now for the binder whose log10 Kd we want.
Recorded result, Antibody BMP9-7: MOR023787 (antibody, human IgG1, lambda, V domains shown, Fully human, phage display) VH: QVQLVESGGGLVKPGGSLRLSCAASGFTFSSAWMSWVRQAPGKGLEWVGHIKSKTYGGTIDYAAPVKGRFTISRDDSKNTLYLQMNSLKTEDTAVYYCARVGGYYGYGYAFAYWGQGTLVTVSS VL: SYELTQPLSVSVALGQTARITCSGDNIGDKYVSWYQQKPGQAPVLVIYDDNKRPSGIPERFSGSNSGNTATLTISRAQAGDEADYYCSSTASKSFNVFGGGTKLTVLG , log10 Kd: -0.46
